# METHOD DESCRIPTION: NCI Yeast Anticancer Drug Screen. Data for the rad50 strain (AID 155);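 also: 0% = growth of vehicle-only cultures of the same strain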
# MEASUREMENT PARAMETERS: S. cerevisiae rad50 strain growth inhibition; at 50.0 µM; active compounds read high
The panel holds about 79,000 compounds, 15% with a hit somewhere; the sample as a whole holds those more often.
Is growth inhibition at least 20%? Then satisfied. If not, not satisfied.

Evaluate Nc1ccccc1O.O.O=C(O)C1[O][Sb][O]C1C(=O)O (configuration not stated) : growth inhibition at minimum 20%?
satisfied

What about Cc1cc(N(CCCl)CCCl)ccc1C=Nc1ccc(F)cc1[N+](=O)[O-] ?
not satisfied

What about c1ccc2cc(C3NCCc4[nH]cnc43)ccc2c1 (configuration not stated) ?
not satisfied

What about CC12CCC3C(CCC4=CC(=O)CCC43C=O)C1CCC2Oc1ccccc1 (configuration not stated) ?
satisfied

What about CCN(CCCl)CCCCCNc1c2ccccc2nc2ccc(OC)cc12 ?
satisfied

What about CCCCCCCCc1ccc(OCCN(CCCl)CCCl)cc1 ?
satisfied

What about Cc1ccc(N)c(C)c1 ?
not satisfied

---

# METHOD DESCRIPTION: NCI Yeast Anticancer Drug Screen. Data for the sgs1 mgt1 strain (AID 161);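 also: 0% = growth of cultures given vehicle only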
# MEASUREMENT PARAMETERS: S. cerevisiae sgs1 mgt1 strain, at 50.0 µM, active compounds read high
This is part of a sample that, as a whole, favours compounds with a hit. Of some 79,000 tested, about 15% had one in any assay.
Is growth inhibition at least 20%? Then met. If not, not met.

Evaluate O=[As](O)(O)c1ccccc1 : growth inhibition at minimum 20%?
not met

What about CN(C)C(=O)Sc1ccc(S(=O)(=O)F)c(Cl)c1Cl ?
met

What about C1CN1[PH+](N1CC1)N1CC1.C1CN1[PH+](N1CC1)N1CC1.[I][Pt][I] ?
met

What about S=C=NCCc1ccccc1 ?
met

What about C1OCC2[CH2][Hg][S][Hg][CH2]C1O2 ?
met

What about CCCCCCCCCC(=O)[O][Hg][c]1ccccc1 ?
met

What about O=C(O)c1ccccc1.[Zn+2] ?
not met

What about COS(=O)(=O)c1ccccc1 ?
not met

What about CC(=O)OC1CC[C@@]2(C)C(=CC[C@@H]3[C@@H]2CC[C@]2(C)C(OC(C)=O)[C@H](n4ccnc4)C[C@@H]32)C1 (stereo partly drawn) ?
met

What about NC(=Nc1ccccc1)N/N=C/c1c[nH]c2ccccc12 ?
not met

What about Cc1cc(C)[n+](CCc2ccccc2)c(C)c1 ?
not met

What about O=NNc1nc2ccccc2[nH]1 ?
not met

What about C1CSCCO1.[Cu+2].[O-][Cl+3]([O-])([O-])O ?
not met

What about COc1ccc(NC2Oc3cc4c(cc3C(c3cc(OC)c(OC)c(OC)c3)C2C)OCO4)cc1 (stereo not drawn) ?
met

What about C/C1=C\[C@H](C)C[C@H](C)OC(=O)C[C@H](c2ccc(O)cc2)NC(=O)[C@@H](Cc2c(Br)[nH]c3ccccc23)N(C)C(=O)[C@H](C)NC(=O)[C@@H](C)C1 ?
met

What about CN1CCC2(CC1)c1ccccc1-c1ccccc12 ?
not met

What about CCOP(=O)(NCCc1ccccc1)OCC ?
not met

What about CC1=CC(=C2C=CC(=[N+](C)C)C=C2)C=C(C)S1 ?
met

What about O=C(CCl)Oc1ccccc1Cl ?
not met

What about O=[N+]([O-])/C=C/c1ccccc1Cl ?
met

What about CCC1CN2CCC1CC2C(O)c1cc[n+]([O-])c2ccc(OC)cc12 (stereo not drawn) ?
not met

What about CC(C)([N+](=O)[O-])S(=O)O ?
not met

What about ClCC1CCN(CCc2ccccc2)CC1 ?
not met

What about CCOC(=O)C(Cc1ccc(N(CCCl)CCCl)cc1)NC(=O)CNC(C)=O (stereo not drawn) ?
not met

What about CC(c1ccccc1)N1O[C@]12CC[C@@]1(C)C(CCCC13OCCO3)C2 (stereo partly drawn) ?
met

What about COc1ccccc1N=Nc1cccc[c]1[Hg][Cl] ?
met

What about ClC1CC2OC(Cl)CC2O1 (stereo not drawn) ?
not met

What about O.O=S(=O)(O)O.[Co+3].[NH2-].[NH2-].[NH2-].[NH2-].[OH-] ?
not met

What about CC1(C)CC(OP(=O)(Cl)OC2CC(C)(C)N(O)C(C)(C)C2)CC(C)(C)N1O ?
not met

What about O=[N+]([O-])/C=C\c1ccccc1 ?
met

What about COC1=C(OC)C23CCc4ccc(OC)c(O)c4C2(CCN3)CC1=O (stereo not drawn) ?
met

What about [Ni+2].[S-]CC[S-] ?
not met

What about CC[As](=O)(O)c1ccc(I)cc1 ?
not met

---

# METHOD DESCRIPTION: NCI Yeast Anticancer Drug Screen. Data for the mec2-1 strain (AID 157)
# MEASUREMENT PARAMETERS: S. cerevisiae mec2-1 strain, at 50.0 µM (retest, dose inferred, filed as 5.0), active compounds read high
About 79,000 compounds went through this panel and 15% of them were active in at least one assay; those are over-represented in the sample as a whole.
Could you please report measured growth inhibition for the items listed next?
Reply numerically in %, unit not repeated.

Consider the compound CN(C)c1ncnc2c1ncn2C1OC(CO)C2NP(=O)(N(CCCl)CCCl)OC21 (stereo unspecified) and give its measured growth inhibition.
24

What about COC1CC2C=C(C)/C=C/C=C/C(=O)NC(c3ccccc3)C/C=C/CCC(O)CC(=O)C2=C1O (stereo unspecified) ?
99

What about [Pt].c1ccc([PH+](c2ccccc2)c2ccccc2)cc1.c1ccc([PH+](c2ccccc2)c2ccccc2)cc1.c1ccc([PH+](c2ccccc2)c2ccccc2)cc1.c1ccc([PH+](c2ccccc2)c2ccccc2)cc1 ?
61

What about [O]=[Sb]([OH])([OH])[c]1ccc(NC2OC(CO)C(O)C(O)C2O)cc1 (stereo unspecified) ?
-2

What about O=NN(CC(=O)O)c1ncccn1 ?
0

What about CC12CCC3C(CC=C4CC(SC(=N)N)CCC43C)C1CCC2=O (stereo unspecified) ?
51

---

# METHOD DESCRIPTION: NCI Yeast Anticancer Drug Screen. Data for the mec2-1 strain (AID 157)
# MEASUREMENT PARAMETERS: S. cerevisiae mec2-1 strain, at 50.0 µM (retest, dose inferred, filed as 5.0), active compounds read high
The panel holds about 79,000 compounds, 15% with a hit somewhere; the sample as a whole holds those more often.
Could you please report measured growth inhibition for the items listed next?
Reply numerically in %, unit not repeated.

Consider the molecule O=C1C(F)=C(N2CC2)C(=O)C(N2CCOCC2)=C1N1CC1 and give its measured growth inhibition.
98

What about Oc1c(Cl)c(Cl)cc(Cl)c1Cc1c(Cl)cc(Cl)c(Cl)c1[O][Pb]([c]1ccccc1)([c]1ccccc1)[c]1ccccc1 ?
90

What about CCCCCCCCCCCCCCCC[N+](C)(C)CCOS(C)(=O)=O ?
99

What about CC(=O)c1ccc(-[n+]2c(C)cc(-c3ccccc3)cc2C)cc1 ?
-6

What about CC[C@@]1(O)C[C@H](OC2CC(N(C)C)C(O)C(C)O2)c2c(cc3c(c2O)C(=O)c2c(O)ccc(O)c2C3=O)[C@H]1C(=O)OC (some centres not stated) ?
98

What about CCC[CH2][Sn]1([CH2]CCC)[O]C(=O)CN=Cc2ccccc2[O]1 ?
92

What about COC(CNS(=O)(=O)c1ccccc1)[CH2][Hg][O]C(C)=O (configuration not stated) ?
13

---

# METHOD DESCRIPTION: NCI Yeast Anticancer Drug Screen. Data for the cln2 rad14 strain (AID 165);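 also: 0% = growth equal to vehicle treated cultures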
# MEASUREMENT PARAMETERS: S. cerevisiae cln2 rad14 strain, at 50.0 µM, active compounds read high
About 79,000 compounds went through this panel and 15% of them were active in at least one assay; those are over-represented in the sample as a whole.
Is growth inhibition at least 10%? Then Satisfied. If not, Not satisfied.

Evaluate CC/C=C/c1cc2c(cc1O)CCC1C2CC[C@@]2(C)C1CC[C@@H]2O (stereo partly specified) : growth inhibition at minimum 10%?
Satisfied

What about CC1CC(C)(O)CC(C(O)CC2CC(=O)NC(=O)C2)C1=O (stereo unspecified) ?
Satisfied

What about O=C([O-])Cc1ccccc1.O=[N+]([O-])O.[Co+3].[NH2-].[NH2-].[NH2-].[NH2-].[NH2-] ?
Satisfied

What about [CH3][Sb]([CH3])([CH3])([O]C(=O)C(Cl)Cl)[O]C(=O)C(Cl)Cl ?
Not satisfied

What about COC(=O)C1=C(N2CCCC2)C2c3ccccc3SC12C(=O)OC (stereo unspecified) ?
Not satisfied

---

# METHOD DESCRIPTION: NCI Yeast Anticancer Drug Screen. Data for the bub3 strain (AID 167)
# MEASUREMENT PARAMETERS: S. cerevisiae bub3 mutant strain, at 50.0 µM, active compounds read high
Compounds without any hit were thinned out: in the full panel of roughly 79,000, 15% have a hit.
Could you please report measured growth inhibition for the items listed next?
Reply numerically in %, unit not repeated.

Consider the compound CC1=C[C@H]2[C@@]3(O)[C@H](C)C[C@]4(OC(=O)C(C)C)[C@H]([C@@H]3C=C(CO)C[C@]2(O)C1=O)C4(C)C and give its measured growth inhibition.
20.8

What about CCOP(=O)(OCC)/C(C#N)=C/c1ccoc1 ?
-29.9

What about [N-]=[N+]=NC1(C(=O)O)CCCC1 ?
-5.75

What about CC(C)CCC(=O)c1ccoc1 ?
5.45

What about CCCCC(Br)C(=O)OCC (stereo not given) ?
10.9

What about [Ni+2].[O-]c1ccc(Cl)cc1C=NCc1ccccn1.[O-]c1ccc(Cl)cc1C=NCc1ccccn1 ?
96.5

What about COc1ccc(NC(=O)/C(=N/NC(N)=S)C2C(=O)NC(=S)NC2=O)c(OC)c1 ?
-8.9

What about Nc1nc2ncnc(N)c2nc1-c1ccc(N(CCCl)CCCl)cc1 ?
13.7

What about Clc1ccc2c(c1)C(c1ccccc1Cl)=NCC(SCCN1CCOCC1)=N2 ?
95.6

What about Cc1cc(-c2ccccc2)cc(C)[n+]1CC[n+]1c(C)cc(-c2ccccc2)cc1C ?
3.4

What about O=C([CH-]C(=O)C(F)(F)F)c1ccco1.O=C([CH-]C(=O)C(F)(F)F)c1ccco1.O=C([CH-]C(=O)C(F)(F)F)c1ccco1.[Ru+3] ?
1.95

What about CC(Cl)CC(=O)OCC1CCCN2CCCCC12 (stereo not given) ?
45.4

What about CC(C)[C@]12O[C@H]1[C@@H]1O[C@]13[C@]1(O[C@H]1C[C@H]1C4=C(CC[C@@]13C)C(=O)OC4)[C@@H]2O ?
-17.2

What about O=[N+]([O-])c1ccc2c3c(cccc13)CC2 ?
19.9

What about CC(C)(C)c1cc(O)ccc1O ?
-25.7

What about Nc1[nH]c(=S)[nH]c(=O)c1Cn1ccnc1 ?
-11.2

What about O=P1(N2CCOCC2)OC(c2ccccc2)=CCN1c1ccc(Cl)cc1 (stereo not given) ?
5.2

What about Cc1cc(N(CCCl)CCCl)ccc1C=Nc1ccccc1F ?
6.85

What about CC1=CC(=O)c2c(O)cccc2C1=O ?
90.5

What about C=CCN(CC=C)C(Cc1ccccc1)c1ccccc1 (stereo not given) ?
11.3

What about CC(C)[N+](C)(CCC(C(=O)N(C)C)(c1ccccc1)c1ccccc1)C(C)C ?
-16

What about CC(C)CCN(CCC(C)C)CC(O)c1ccc(Br)cc1 (stereo not given) ?
-15.6

What about CCOC(=O)C(Cc1ccc(N(CCCl)CCCl)cc1)NC(=O)C(N)CO (stereo not given) ?
12.3

What about O=CNNC(=O)C(Cl)Cl ?
-3.45

What about FC(F)(F)c1ccc(Cl)c(NC2=NCCS2)c1 ?
11
